Reported apparent KD of K4 kissing-loop reporter values are given for each entry in this list.
# Test system: K4 kissing-loop RNA reporter;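 also: bound reporter read as fluorescence of individual clusters on recovered sequencing chips by microscopy, with normalized cluster intensities fitted with a binding model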
# ASSAY OVERVIEW: apparent KD of K4 kissing-loop reporter; higher = weaker reporter binding
# TEST CONTEXT: Eterna round: R107; input ligand: arginine 13.2 mM
VALUE KIND: apparent KD of K4 kissing-loop reporter (nM)

{"SEQUENCE DATA": "GAGGUACAGGCGGCCGCCACUAGUGAUGUUAGUGAUAGAAGAUAUAGUAAAUAUCGGCAUGUAGAUAGGACCGGGCCUGGUGGAG [vvgtcmullin]", "VALUE KIND": "apparent KD of K4 kissing-loop reporter", "READOUT UNITS": "nM", "ENDPOINT RESULT": 234}
{"SEQUENCE DATA": "AAUGUACAGGGAAGGAGCGUAGUCCAGUGAUGUUGGAAUUAAAUUCCUGCGAUGUUGGUUAUACAGGUAGGUCGCCCUAAAGUGC [KL-XARG-B22]", "VALUE KIND": "apparent KD of K4 kissing-loop reporter", "READOUT UNITS": "nM", "ENDPOINT RESULT": 351}
{"SEQUENCE DATA": "UUUCGUUUCGUCUGACAUAAUUGGCUAGAAGGAGCGGUAAAAUUACCAGGUAGGUCGCUAGCCCAGUGAUGUUGGGACUAGCAUA [Onqudi]", "VALUE KIND": "apparent KD of K4 kissing-loop reporter", "READOUT UNITS": "nM", "ENDPOINT RESULT": 154}
